molecular target: Vitamin D3 receptor (Homo sapiens); test: qHTS assay to identify small molecule agonists of the vitamin D receptor (VDR) signaling pathway (AID 743222); details: HEK293T VDR-UAS-bla, beta-lactamase FRET ratio, 16 h; series mostly up to 63.5 µM
Results filed as inconclusive are left out. The source made the active and inactive calls. The call rests on the fitted dose curve.
Result category, one only: active, inactive

Some solved cases for reference:
Task: Hey, what did the test say about "OC[C@@H](O)[C@H](O)[C@H](O)[C@@H](O)CO" ?
Result: inactive

Task: Hey, what did the test say about "C=CC(=O)OCCCCCCCC(C)C" ?
Result: inactive

Task: Hey, what did the test say about CCCCCCCCCCC=CC1CC(=O)OC1=O (stereo unspecified) ?
Result: inactive

Task: Hey, what did the test say about "Clc1ccc(Cl)c(Cl)c1Cl" ?
Result: inactive

Task: Hey, what did the test say about "O=S(=O)(Oc1ccc(Cl)cc1Cl)c1ccccc1" ?
Result: inactive

Next:
Task: Hey, what did the test say about "CCOC(=O)[C@H](CCc1ccccc1)N[C@@H](C)C(=O)N1Cc2ccccc2C[C@H]1C(=O)O" ?
Result: inactive

Task: Hey, what did the test say about "NCc1cccc(CN)c1" ?
Result: inactive

Task: Hey, what did the test say about OCC1CCCO1 (stereo unspecified) ?
Result: inactive

###

test: qHTS assay to identify small molecule agonists of the sonic hedgehog signaling (Shh) pathway - cell viability counter screen (AID 1259366); settings: NIH/3T3 Gli1-Luc viability, CellTiter-Fluor, 24 h; series mostly up to 92.4 µM; further: nearly all actives have a fitted effect of over 50% in size
Results filed as inconclusive are left out. The source made the active and inactive calls. Calls come from the whole dose curve; as a rule, active = well fitted cell-killing curve with a large enough effect in the repeat runs; inconclusive = weak or mixed curves, or effect the other way; inactive = flat fitted curve, though single readings scatter.
Result category, one only: yes (active), no (inactive)

Some solved cases for reference:
Task: Hey, what did the test say about CCCCC(CC)COC(=O)CCCCCCCC(=O)OCC(CC)CCCC (stereo not drawn) ?
Result: no

Task: Hey, what did the test say about CCC(C)C=O (stereo not drawn) ?
Result: no

Task: Hey, what did the test say about "Cc1cc(NS(=O)(=O)c2ccc(N)cc2)no1" ?
Result: no

Task: Hey, what did the test say about "Oc1ccc2ccccc2c1N=Nc1ccccc1" ?
Result: yes

Task: Hey, what did the test say about "Clc1ccc(Cl)c(Cl)c1Cl" ?
Result: no

Next:
Task: Hey, what did the test say about "NC(=O)/N=N/C(N)=O" ?
Result: no

Task: Hey, what did the test say about "O=S(=O)(Oc1ccc(Cl)cc1Cl)c1ccccc1" ?
Result: no

Task: Hey, what did the test say about "OCC#CCO" ?
Result: no

Task: Hey, what did the test say about "Cc1cc(O)c2c(c1)C(=O)c1cc(O)cc(O)c1C2=O" ?
Result: no

Task: Hey, what did the test say about "C/C=C(C)/C=C/C=C(C)C" ?
Result: no

Task: Hey, what did the test say about CCCCCCCCCCCCOCC1CO1 (stereo not drawn) ?
Result: no

Task: Hey, what did the test say about "OC1CCCC1" ?
Result: no

Task: Hey, what did the test say about "CC1=C(/C=C/C(C)=C/C=C/C(C)=C/CO)C(C)(C)CCC1" ?
Result: no

Task: Hey, what did the test say about "O=C(Cl)c1c(Cl)c(Cl)c(C(=O)Cl)c(Cl)c1Cl" ?
Result: no

Task: Hey, what did the test say about "CCCCC/C=C\C/C=C\CCCCCCCC(=O)OC" ?
Result: no

Task: Hey, what did the test say about "CC(C)(CO)COC(=O)C(C)(C)CO" ?
Result: no

Task: Hey, what did the test say about "CN(C)c1ccc(C(=N)c2ccc(N(C)C)cc2)cc1" ?
Result: yes

Task: Hey, what did the test say about "NCCNCCNCCNCCN" ?
Result: no

Task: Hey, what did the test say about "Cc1ccc(C)c(C)c1" ?
Result: no

Task: Hey, what did the test say about "O=Nc1ccc(O)cc1" ?
Result: no

Task: Hey, what did the test say about "NCc1cccc(CN)c1" ?
Result: no

Task: Hey, what did the test say about "C=C(C)C(=O)OCCCCCC" ?
Result: no

Task: Hey, what did the test say about "CC[Si](OC(C)=O)(OC(C)=O)OC(C)=O" ?
Result: no

###

Assay: Human pregnane X receptor (PXR) small molecule agonists, qHTS cell viability counter screen (AID 1346977); further: nearly all actives have a fitted effect of over 50% in size
Conditions: PXR-Luc HepG2 viability, CellTiter-Fluor, 24 h; series mostly up to 92.4 µM
Description: U.S. Tox21 Program National Center for Advancing Translational Sciences [NCATS] NIH Chemical Genomics Center [NCGC] U.S. Environmental Protection Agency [EPA] National Institutes of Environmental Health Sciences [NIEHS] National Toxicology Program [NTP] U.S. Food and Drug Administration [FDA] […]
Inconclusive results are not listed. Active and inactive are the calls of the source. Calls follow the shape of the dose curve; as a rule, active = well fitted cell-killing curve with a large enough effect in the repeat runs; inconclusive = weak or mixed curves, or effect the other way; inactive = flat fitted curve, though single readings scatter.
Result category, one only: active, inactive

Some solved cases for reference:
Task: Hey, what did the test say about "O=C1CCCCC1" ?
Result: inactive

Task: Hey, what did the test say about "CNC[C@H](O)[C@@H](O)[C@H](O)[C@H](O)CO" ?
Result: inactive

Task: Hey, what did the test say about CCCCCCCCCCC=CC1CC(=O)OC1=O (configuration not stated) ?
Result: inactive

Task: Hey, what did the test say about CC1(C)CC(N=C=O)CC(C)(CN=C=O)C1 (configuration not stated) ?
Result: inactive

Next:
Task: Hey, what did the test say about "Cc1cc(O)cc(C)c1Cl" ?
Result: inactive

Task: Hey, what did the test say about "CCCCC/C=C\C/C=C\CCCCCCCC(=O)OC" ?
Result: inactive

Task: Hey, what did the test say about "OCC#CCO" ?
Result: inactive

Task: Hey, what did the test say about "NS(=O)(=O)c1cc2c(cc1Cl)NC=NS2(=O)=O" ?
Result: inactive

Task: Hey, what did the test say about "C/C=C(C)/C=C/C=C(C)C" ?
Result: inactive

Task: Hey, what did the test say about "CCCCOCCOCCOC(=O)CCCCC(=O)OCCOCCOCCCC" ?
Result: inactive

Task: Hey, what did the test say about "CCCCCCOC(C)=O" ?
Result: inactive

Task: Hey, what did the test say about "O=[N+]([O-])c1cc(N(CCO)CCO)ccc1NCCO" ?
Result: active

###

Experiment: qHTS assay to identify small molecule agonists of the estrogen receptor alpha (ER-alpha) signaling pathway in the presence of an antagonist - cell viability counter screen (AID 1259386);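 further: cells exposed to compounds for 22 h at 37 °C before the viability read; nearly all actives have a fitted effect of over 30% in size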
Details: VM7Luc4E2 viability, CellTiter-Fluor fluorescence, 22 h; series mostly up to 92.4 µM
Excerpt: National Center for Advancing Translational Sciences [NCATS] NIH Chemical Genomics Center [NCGC] U.S. Environmental Protection Agency [EPA] National Institutes of Environmental Health Sciences [NIEHS] National Toxicology Program [NTP] U.S. Food and Drug Administration [FDA] Estrogen receptor (ER), a member of nuclear hormone receptor plays an important role in development, metabolic homeostasis and reproduction. […]
Results filed as inconclusive are left out. Calls of active or inactive are those of the source. Calls follow the shape of the dose curve; as a rule, active = well fitted cell-killing curve with a large enough effect in the repeat runs; inconclusive = weak or mixed curves, or effect the other way; inactive = no such curve, though single readings can be large or run the other way.
Result category, one only: active, inactive

Task: Hey, what did the test say about "C=C(C)C(=O)OCCC[Si](OC)(OC)OC" ?
Result: inactive

Task: Hey, what did the test say about "Cc1ccc(C)c(C)c1" ?
Result: inactive

Task: Hey, what did the test say about "CCCCCCCCCC(=O)O" ?
Result: inactive

Next:
Task: Hey, what did the test say about "CN(C)c1cccc(O)c1" ?
Result: inactive

Task: Hey, what did the test say about "O=C(Oc1ccccc1)c1ccc(O)cc1" ?
Result: inactive

Task: Hey, what did the test say about "C=C(C)C(=O)OCCCCCC" ?
Result: inactive

Task: Hey, what did the test say about "Nc1c(S(=O)(=O)O)cc(Br)c2c1C(=O)c1ccccc1C2=O" ?
Result: active

Task: Hey, what did the test say about "OC1CCCC1" ?
Result: inactive

###

target: Vitamin D3 receptor (Homo sapiens); assay: qHTS assay to identify small molecule agonists of the vitamin D receptor (VDR) signaling pathway (AID 743222); conditions: HEK293T VDR-UAS-bla, beta-lactamase FRET ratio, 16 h; series mostly up to 63.5 µM
Records with an inconclusive call do not appear. Calls of active or inactive are those of the source. The call rests on the fitted dose curve.
Result category, one only: yes (1) (active), no (0) (inactive)

Some solved cases for reference:
Task: Hey, what did the test say about "CC(=O)CCc1ccccc1" ?
Result: no (0)

Task: Hey, what did the test say about "O=C(Oc1ccccc1)c1ccc(O)cc1" ?
Result: no (0)

Task: Hey, what did the test say about CCCCC(CC)COC(=O)/C=C\C(=O)OCC(CC)CCCC (stereo not drawn) ?
Result: no (0)

Task: Hey, what did the test say about "Cc1ccc(C(=O)O)o1" ?
Result: no (0)

Task: Hey, what did the test say about "Oc1ccc2ccccc2c1" ?
Result: no (0)

Task: Hey, what did the test say about "C=C1CC[C@H](O)CC1=C/C=C1\CCC[C@]2(C)[C@@H]([C@H](C)/C=C/[C@H](C)C(C)C)CC[C@@H]12" ?
Result: yes (1)

Task: Hey, what did the test say about "CCc1ccc(O)cc1" ?
Result: no (0)

Task: Hey, what did the test say about "Cc1cc(NS(=O)(=O)c2ccc(N)cc2)no1" ?
Result: no (0)

Lab note: next compound to report on.
Task: Hey, what did the test say about CC1COc2ccccc2N1C(=O)C(Cl)Cl (stereo not drawn) ?
Result: no (0)
